Reference source: patent US11673889B2

# EXPERIMENTAL_SYSTEM: human soluble ENPP1 (Homo sapiens, UniProt P22413)
# Construct: 20 ng of human soluble ENPP1
# METHOD_SUMMARY: ENPP1 activity assay using p-Nitrophenyl-5′-AMP as a substrate
# Type: biochemical
The following molecules are shown together with reported log10 IC50 values.
VALUE_TYPE: log10 IC50 (log10 of the value in nM)

| MOLECULE | OBSERVED_MEASUREMENT |
| --- | --- |
| COc1ccc2c(ncc3ncn(Cc4ccc(S(N)(=O)=O)cc4C#N)c32)n1 | 0.32 |
| COc1ccc2c(n1)nc(C)c1nc(C)n(Cc3cc(F)c(S(N)(=O)=O)cc3F)c12 | 0.89 |
| CNS(=O)(=O)c1cc(F)c(Cn2c(=O)[nH]c3cnc4nc(OC)ccc4c32)c(F)c1 | 1.90 |
| COc1ccc2c(ncc3cnn(Cc4ccc(S(N)(=O)=O)cn4)c32)n1 [Compound 135a] | 0.15 |
| COc1ccc2c(ncc3nnn(Cc4ccc(S(N)(=O)=O)cn4)c32)n1 | 0.04 |
| COCCn1c(=O)n(Cc2c(F)cc(S(N)(=O)=O)cc2F)c2c3ccc(OC)nc3ncc21 | -0.13 |
| COc1ccc2c(ncc3[nH]c(=O)n(Cc4c(F)cc(P(=O)(O)O)cc4F)c32)n1 | 1.75 |
| COc1ccc2c(ncc3nc(C)n(Cc4ccc(S(=O)(=O)NC(C)=O)c(F)c4)c32)n1 | 1.41 |
| COc1ccc2c(n1)nc(C)c1nc(C)n(Cc3ncc(S(N)(=O)=O)cn3)c12 [Compound 91a] | 2.51 |
| COc1ccc2c(c1)nnc1[nH]c(=O)n(Cc3ccc(S(N)(=O)=O)cc3F)c12 | 0.38 |
| COc1ccc2c(ncc3ncn(Cc4ccc(S(N)(=O)=O)cc4Br)c32)n1 | 0.23 |
| COc1ccc2c(ncc3[nH]c(=O)n(Cc4c(F)cc(C(=O)NO)cc4F)c32)n1 | 0.41 |
| COc1ccc2c(ncc3ccn(Cc4ccc(S(N)(=O)=O)cc4)c32)n1 | 1.53 |
| COc1ccc2c(ncc3ncn(Cc4ccc(S(N)(=O)=O)c(OC(F)(F)F)c4)c32)n1 | 1.11 |
| COc1ccc2c(ncc3nc(CN4CCOCC4)n(Cc4ccc(S(N)(=O)=O)c(F)c4)c32)n1 | 0.81 |
| COc1ccc2c(n1)nc(C)c1nnn(Cc3ccc(S(N)(=O)=O)cn3)c12 | 1.32 |
| COc1ccc2c(ncc3[nH]c(=O)n([C@H](C)c4ccc(S(N)(=O)=O)cc4)c32)n1 | 0.04 |

----------
# METHOD_SUMMARY: Liver microsome stability, human
# Type: in vitro ADME
# MEASUREMENT_CONDITIONS: liver microsomes; Human liver microsome 0.5 mg/mL; NADPH and UDPGA; 37° C.; read-out: Half-life t1/2

| ENTRY_SMILES | half-life (h) |
| --- | --- |
| COc1cc2ncc3ncn(Cc4ccc(S(N)(=O)=O)cn4)c3c2cc1OC | 8.27 |

----------
The following molecules are shown together with reported half-life values.
# METHOD_SUMMARY: Pharmacokinetics in mice
# Format: in vivo
# MEASUREMENT_CONDITIONS: mouse, plasma; male CD-1 mice; 1 mg/kg, iv
VALUE_TYPE: half-life (h)

| ENTRY_SMILES | OBSERVED_MEASUREMENT |
| --- | --- |
| COc1ccc2c(ncc3[nH]c(=O)n(Cc4ccc(S(N)(=O)=O)cc4F)c32)n1 | 5.1 |
| COc1ccc2c(ncc3nc(C)n(Cc4ccc(S(N)(=O)=O)nc4)c32)n1 | 0.6 |
| COc1ccc2c(ncc3nc(C)n(Cc4ccc(S(N)(=O)=O)cn4)c32)n1 | 1.4 |

----------
# EXPERIMENTAL_SYSTEM: ENPP-1, MDA-MB-231 cells (Homo sapiens, UniProt P22413)
# Sequence (P22413 1-925): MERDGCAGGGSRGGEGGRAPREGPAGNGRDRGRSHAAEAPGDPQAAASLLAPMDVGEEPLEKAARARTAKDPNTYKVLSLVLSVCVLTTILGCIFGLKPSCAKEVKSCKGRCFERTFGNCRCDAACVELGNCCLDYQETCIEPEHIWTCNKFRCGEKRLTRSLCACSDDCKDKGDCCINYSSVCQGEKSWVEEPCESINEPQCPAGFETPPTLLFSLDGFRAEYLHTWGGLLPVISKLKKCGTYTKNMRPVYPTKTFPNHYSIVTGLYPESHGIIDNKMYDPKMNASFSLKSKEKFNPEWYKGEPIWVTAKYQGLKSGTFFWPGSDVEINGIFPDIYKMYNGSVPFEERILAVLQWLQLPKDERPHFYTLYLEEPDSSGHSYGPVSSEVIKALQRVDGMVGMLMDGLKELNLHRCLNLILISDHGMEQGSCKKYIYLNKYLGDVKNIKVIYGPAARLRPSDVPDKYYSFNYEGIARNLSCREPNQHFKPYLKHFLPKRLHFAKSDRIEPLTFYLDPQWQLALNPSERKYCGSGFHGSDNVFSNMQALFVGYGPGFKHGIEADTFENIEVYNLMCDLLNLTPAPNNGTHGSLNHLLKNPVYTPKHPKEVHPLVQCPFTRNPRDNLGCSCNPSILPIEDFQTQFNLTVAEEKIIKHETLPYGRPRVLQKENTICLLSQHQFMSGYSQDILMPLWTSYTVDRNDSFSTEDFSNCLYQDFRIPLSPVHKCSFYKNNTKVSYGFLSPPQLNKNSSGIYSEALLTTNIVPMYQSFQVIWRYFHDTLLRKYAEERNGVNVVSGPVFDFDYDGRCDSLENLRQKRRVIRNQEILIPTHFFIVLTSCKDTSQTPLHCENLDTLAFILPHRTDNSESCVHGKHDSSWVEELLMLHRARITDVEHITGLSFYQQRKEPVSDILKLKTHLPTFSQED
VALUE_TYPE: log10(IC50) (log10 of the value in nM)

| COMPOUND | log10(IC50) |
| --- | --- |
| COc1ccc2c(ncc3nnn(Cc4ccc(S(N)(=O)=O)cn4)c32)n1 | 2.08 |
| COc1ccc2c(ncc3nc(CC#N)n(Cc4ccc(S(N)(=O)=O)c(F)c4)c32)n1 | 2.75 |
| COc1ccc2c(ncc3ncn(Cc4ccc(S(N)(=O)=O)cc4)c32)n1 | 2.60 |
| COc1ccc2c(ncc3ccn(Cc4ccc(S(N)(=O)=O)cc4)c32)n1 | 4.20 |
| COc1ccc2c(ncc3cnn(Cc4ccc(S(N)(=O)=O)c(F)c4)c32)n1 [Compound 122a] | 3.23 |
| COc1ccc2c(ncc3cnn(Cc4ccc(S(N)(=O)=O)cn4)c32)n1 [Compound 135a] | 1.90 |
| COc1ccc2c(ncc3nc(C)n(Cc4ccc(S(N)(=O)=O)cc4)c32)n1 | 2.74 |

----------
The following compounds are shown together with reported inhibition at 20 µM values.
# EXPERIMENTAL_SYSTEM: ENPP-1, MDA-MB-231 cells (Homo sapiens)
# METHOD_SUMMARY: cell-based
# MEASUREMENT_CONDITIONS: MDA-MB-231, read-out: % Inhibition (at 20 μM)

| COMPOUND | UNITS_OF_MEASURE | inhibition at 20 µM |
| --- | --- | --- |
| COc1ccc2c(ncc3nc(C4CCOCC4)n(Cc4ccc(S(N)(=O)=O)cn4)c32)n1 | % | 81 |
| COc1ccc2c(ncc3[nH]c(=O)n(Cc4ccc(S(N)(=O)=O)cn4)c32)n1 | % | 77 |
| COc1ccc2c(ncc3ncn(Cc4ccc(S(N)(=O)=O)nc4)c32)n1 | % | 81 |
| COc1ccc2c(ncc3[nH]c(=O)n([C@H](C)c4ccc(S(N)(=O)=O)cc4)c32)n1 | % | 76 |
| COc1ccc2c(n1)nc(C)c1ncn(Cc3ccc(S(N)(=O)=O)c(F)c3)c12 | % | 81 |
| COc1cc2ncc3ncn(Cc4ccc(S(N)(=O)=O)cn4)c3c2cc1OC | % | 79 |
| COc1cc2ncc3ncn([C@H](C)c4ccc(S(N)(=O)=O)cc4)c3c2cc1OC [Compound 11a] | % | 79 |
| COc1ccc2c(ncc3nc(C)n(Cc4ccc(S(N)(=O)=O)cc4)c32)n1 | % | 80 |
| COc1ccc2c(n1)nc(C)c1nc(CN(C)C)n(Cc3cc(F)c(S(N)(=O)=O)cc3F)c12 | % | 68 |
| COc1ccc2c(ncc3nc(C)n(Cc4ccc(S(N)(=O)=O)c(F)c4)c32)n1 | % | 76 |
| COc1ccc2c(ncc3ncn(CC4CN(S(N)(=O)=O)C4)c32)n1 | % | 79 |
| COc1ccc2c(n1)nc(C)c1[nH]c(=O)n(Cc3c(F)cc(S(N)(=O)=O)cc3F)c12 | % | 72 |
| COC(=O)Cc1nc2cnc3nc(OC)ccc3c2n1Cc1ccc(S(N)(=O)=O)c(F)c1 | % | 83 |
| COc1ccc2c(n1)nc(C)c1nc(C)n(Cc3cc(F)c(S(N)(=O)=O)cc3F)c12 | % | 74 |
| COc1ccc2c(ncc3nc(C)n(Cc4ccc(S(=O)(=O)NC(C)=O)c(F)c4)c32)n1 | % | 51 |
| COc1ccc2c(ncc3ncn(Cc4ccc(S(N)(=O)=O)c(C(F)(F)F)c4)c32)n1 | % | 75 |
| COc1ccc2c(ncc3nnn(Cc4ccc(S(N)(=O)=O)c(F)c4)c32)n1 | % | 79 |
